system: HEK293; experiment: Selectivity ratio of Ki for human 5-HT7 receptor expressed in HEK293 cells to Ki for human 5-HT1A receptor expressed in HEK293 cells; assay type: cell-based
observation type: Ratio Ki
The response must contain the number and no unit.

Study these solved cases before continuing.
Enquiry: Provide one value: measured Ratio Ki of COc1ccccc1N1CCN(CCCCCC(=O)N2CCC[C@H]2C(N)=O)CC1
Return: 27

Enquiry: Provide one value: measured Ratio Ki of COc1ccccc1N1CCN(CCCCCC(=O)N2Cc3ccccc3C[C@H]2C(N)=O)CC1
Return: 25

Query compound follows.
Enquiry: Provide one value: measured Ratio Ki of COc1ccccc1N1CCN(CCCCC(=O)N2Cc3ccccc3C[C@H]2C(N)=O)CC1
Return: 5

* * *

# collection of Ki values tested on 5-hydroxytryptamine receptor 7 (Homo sapiens)
# Sequence (P34969 whole entry): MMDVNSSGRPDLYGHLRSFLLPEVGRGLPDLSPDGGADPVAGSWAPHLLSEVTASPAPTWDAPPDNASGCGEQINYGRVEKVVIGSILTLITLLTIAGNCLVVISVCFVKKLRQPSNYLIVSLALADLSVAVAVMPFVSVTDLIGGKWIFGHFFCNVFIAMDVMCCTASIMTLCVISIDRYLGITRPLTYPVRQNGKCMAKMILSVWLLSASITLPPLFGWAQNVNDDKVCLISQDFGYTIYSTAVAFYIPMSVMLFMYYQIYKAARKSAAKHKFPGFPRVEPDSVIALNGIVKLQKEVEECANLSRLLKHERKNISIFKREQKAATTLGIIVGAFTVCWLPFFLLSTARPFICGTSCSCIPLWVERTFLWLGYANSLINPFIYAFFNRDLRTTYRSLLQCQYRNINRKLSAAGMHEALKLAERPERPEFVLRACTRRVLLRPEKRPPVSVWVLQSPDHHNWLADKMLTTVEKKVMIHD
Unit nM implied. Number only.

Study these solved cases before continuing.
Enquiry: Provide one value: measured Ki of NC(=O)[C@@H]1CCCN1C(=O)CCCCN1CCN(c2ccccc2O)CC1
Return: 1870

Enquiry: Provide one value: measured Ki of CSc1ccccc1N1CCN(CCCCCC(=O)NC2CCCc3ccccc32)CC1 (stereo not given)
Return: 0.22

Enquiry: Provide one value: measured Ki of NC(=O)[C@@H]1CCCN1C(=O)CCCCCCN1CCN(c2noc3ccccc23)CC1
Return: 101

Enquiry: Provide one value: measured Ki of COc1ccccc1N1CCN(CCCCCC(=O)N2Cc3ccccc3C[C@H]2C(N)=O)CC1
Return: 302

Enquiry: Provide one value: measured Ki of CSc1ccccc1N1CCN(Cc2ccc(C(=O)N3Cc4ccccc4C[C@H]3C(N)=O)cc2)CC1
Return: 148

***
Enquiry: Provide one value: measured Ki of NC(=O)[C@@H]1CCCN1C(=O)CCCCCN1CCN(c2cccc(Cl)c2Cl)CC1
Return: 179

Enquiry: Provide one value: measured Ki of NC(=O)[C@@H]1Cc2ccccc2CN1C(=O)CCCCN1CCN(c2noc3ccccc23)CC1
Return: 18

Enquiry: Provide one value: measured Ki of CSc1ccccc1N1CCN(CCCCCCC(=O)N2CCC[C@H]2C(N)=O)CC1
Return: 495

Enquiry: Provide one value: measured Ki of CSc1ccccc1N1CCN(CCCCC(=O)N2Cc3ccccc3C[C@H]2C(N)=O)CC1
Return: 51

Enquiry: Provide one value: measured Ki of NC(=O)[C@@H]1CCCN1C(=O)CCCCCN1CCN(c2ccc(F)cc2)CC1
Return: 1190

* * *

target: UniProtKB P34969
observation type: pKi
The meaning of pKi here: minus log10 of the concentration in molar units.

Enquiry: # lookup: UniProtKB P34969 pKi, key = NC(=O)[C@@H]1Cc2ccccc2CN1C(=O)CCCCCN1CCN(c2ccccc2Cl)CC1
Return: 6.41

***
Enquiry: # lookup: UniProtKB P34969 pKi, key = NC(=O)[C@@H]1Cc2ccccc2CN1C(=O)CCCCCN1CCN(c2noc3ccccc23)CC1
Return: 7.66

Enquiry: # lookup: UniProtKB P34969 pKi, key = CSc1ccccc1N1CCN(Cc2ccc(C(=O)N3CCC[C@H]3C(N)=O)cc2)CC1
Return: 6.25

Enquiry: # lookup: UniProtKB P34969 pKi, key = NC(=O)[C@@H]1Cc2ccccc2CN1C(=O)c1ccc(CN2CCN(c3cccc(Cl)c3Cl)CC2)cc1
Return: 5.92

* * *

test system: HEK293; assay: Selectivity ratio of Ki for human 5-HT1A receptor expressed in HEK293 cells to Ki for human 5-HT7 receptor expressed in HEK293 cells; format: cell-based
Property: Ratio Ki; scope: individual compounds

Study these solved cases before continuing.
Enquiry: Provide one value: measured Ratio Ki of NC(=O)[C@@H]1CCCN1C(=O)CCCCCN1CCN(c2ccccc2Cl)CC1
Return: < 1

Enquiry: Provide one value: measured Ratio Ki of NC(=O)[C@@H]1CCCN1C(=O)CCCCN1CCN(c2cccc(Cl)c2Cl)CC1
Return: < 1

Query compound follows.
Enquiry: Provide one value: measured Ratio Ki of COc1ccccc1N1CCN(Cc2ccc(C(=O)N3Cc4ccccc4C[C@H]3C(N)=O)cc2)CC1
Return: < 1

* * *

Property: Ratio Ki; scope: individual molecules
tested on: HEK293; test: Selectivity ratio of Ki for human 5-HT1A receptor expressed in HEK293 cells to Ki for human 5-HT7 receptor expressed in HEK293 cells; format: cell-based

Study these solved cases before continuing.
Enquiry: Provide one value: measured Ratio Ki of NC(=O)[C@@H]1Cc2ccccc2CN1C(=O)CCCCCN1CCN(c2noc3ccccc23)CC1
Return: 10

Enquiry: Provide one value: measured Ratio Ki of CSc1ccccc1N1CCN(CCCCC(=O)N2CCC[C@H]2C(N)=O)CC1
Return: < 1

Enquiry: Provide one value: measured Ratio Ki of NC(=O)[C@@H]1CCCN1C(=O)CCCCCN1CCN(c2ccccc2F)CC1
Return: < 1

Enquiry: Provide one value: measured Ratio Ki of NC(=O)[C@@H]1Cc2ccccc2CN1C(=O)CCCCCN1CCN(c2cccc(Cl)c2Cl)CC1
Return: < 1

Enquiry: Provide one value: measured Ratio Ki of COc1ccccc1N1CCN(CCCCCC(=O)N2CCC[C@H]2C(N)=O)CC1
Return: < 1

***
Enquiry: Provide one value: measured Ratio Ki of CSc1ccccc1N1CCN(CCCCC(=O)N2Cc3ccccc3C[C@H]2C(N)=O)CC1
Return: < 1

Enquiry: Provide one value: measured Ratio Ki of NC(=O)[C@@H]1CCCN1C(=O)CCCCCN1CCN(c2cccc(Cl)c2)CC1
Return: < 1

Enquiry: Provide one value: measured Ratio Ki of NC(=O)[C@@H]1Cc2ccccc2CN1C(=O)CCCCN1CCN(c2noc3ccccc23)CC1
Return: 21

Enquiry: Provide one value: measured Ratio Ki of NC(=O)[C@@H]1Cc2ccccc2CN1C(=O)CCCCCCN1CCN(c2noc3ccccc23)CC1
Return: 3

Enquiry: Provide one value: measured Ratio Ki of NC(=O)[C@@H]1CCCN1C(=O)CCCCCN1CCN(c2ccc(F)cc2)CC1
Return: < 1

Enquiry: Provide one value: measured Ratio Ki of NC(=O)[C@@H]1Cc2ccccc2CN1C(=O)CCCCN1CCN(c2ccc(Cl)cc2)CC1
Return: < 1

Enquiry: Provide one value: measured Ratio Ki of NC(=O)[C@@H]1CCCN1C(=O)CCCCN1CCN(c2noc3ccccc23)CC1
Return: 27

* * *

Target: 5-hydroxytryptamine receptor 1A (Homo sapiens)
Sequence (P08908 whole entry): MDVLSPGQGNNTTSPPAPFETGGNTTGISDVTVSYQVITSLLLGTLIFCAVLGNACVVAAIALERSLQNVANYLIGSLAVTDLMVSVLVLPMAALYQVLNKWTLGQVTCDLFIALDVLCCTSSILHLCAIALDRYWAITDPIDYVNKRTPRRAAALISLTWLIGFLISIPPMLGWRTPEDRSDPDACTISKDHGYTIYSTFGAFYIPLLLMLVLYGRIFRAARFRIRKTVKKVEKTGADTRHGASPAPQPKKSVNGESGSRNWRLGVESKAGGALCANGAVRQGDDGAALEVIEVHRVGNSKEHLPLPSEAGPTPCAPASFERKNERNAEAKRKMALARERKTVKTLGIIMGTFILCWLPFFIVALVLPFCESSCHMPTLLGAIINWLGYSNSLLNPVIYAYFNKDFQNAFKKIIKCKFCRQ
observation type: Ki (nM)
Unit nM implied. Number only.

Study these solved cases before continuing.
Enquiry: # lookup: 5-hydroxytryptamine receptor 1A (Homo sapiens) Ki, key = NC(=O)[C@@H]1Cc2ccccc2CN1C(=O)CCCCN1CCN(c2ccc(F)cc2)CC1
Return: 1910

Enquiry: # lookup: 5-hydroxytryptamine receptor 1A (Homo sapiens) Ki, key = CSc1ccccc1N1CCN(CCCCCCC(=O)N2CCC[C@H]2C(N)=O)CC1
Return: 23

Enquiry: # lookup: 5-hydroxytryptamine receptor 1A (Homo sapiens) Ki, key = NC(=O)[C@@H]1CCCN1C(=O)CCCCN1CCN(c2cccc(Cl)c2Cl)CC1
Return: 83

Enquiry: # lookup: 5-hydroxytryptamine receptor 1A (Homo sapiens) Ki, key = NC(=O)[C@@H]1Cc2ccccc2CN1C(=O)CCCCCN1CCN(c2ccc(F)cc2)CC1
Return: 643

Enquiry: # lookup: 5-hydroxytryptamine receptor 1A (Homo sapiens) Ki, key = NC(=O)[C@@H]1CCCN1C(=O)CCCCCN1CCN(c2noc3ccccc23)CC1
Return: 214

Enquiry: # lookup: 5-hydroxytryptamine receptor 1A (Homo sapiens) Ki, key = NC(=O)[C@@H]1CCCN1C(=O)CCCCCN1CCN(c2ccc(F)cc2)CC1
Return: 573

Query compound follows.
Enquiry: # lookup: 5-hydroxytryptamine receptor 1A (Homo sapiens) Ki, key = NC(=O)[C@@H]1Cc2ccccc2CN1C(=O)CCCCCCN1CCN(c2noc3ccccc23)CC1
Return: 89

* * *

system: HEK293; experiment: Selectivity ratio of Ki for human 5-HT7 receptor expressed in HEK293 cells to Ki for human 5-HT1A receptor expressed in HEK293 cells; format: cell-based
observation type: Ratio Ki

Enquiry: Provide one value: measured Ratio Ki of NC(=O)[C@@H]1CCCN1C(=O)CCCCN1CCN(c2cccc(Cl)c2Cl)CC1
Return: < 1

Enquiry: Provide one value: measured Ratio Ki of NC(=O)[C@@H]1Cc2ccccc2CN1C(=O)CCCCCN1CCN(c2noc3ccccc23)CC1
Return: < 1

Enquiry: Provide one value: measured Ratio Ki of COc1ccccc1N1CCN(Cc2ccc(C(=O)N3CCC[C@H]3C(N)=O)cc2)CC1
Return: < 1
